Molecular target: human recombinant adrenergic α2A receptor (Homo sapiens)
Construct: expressed in transfected cells; host or cells: insect Sf9 cells
Sequence (P08913 1-465): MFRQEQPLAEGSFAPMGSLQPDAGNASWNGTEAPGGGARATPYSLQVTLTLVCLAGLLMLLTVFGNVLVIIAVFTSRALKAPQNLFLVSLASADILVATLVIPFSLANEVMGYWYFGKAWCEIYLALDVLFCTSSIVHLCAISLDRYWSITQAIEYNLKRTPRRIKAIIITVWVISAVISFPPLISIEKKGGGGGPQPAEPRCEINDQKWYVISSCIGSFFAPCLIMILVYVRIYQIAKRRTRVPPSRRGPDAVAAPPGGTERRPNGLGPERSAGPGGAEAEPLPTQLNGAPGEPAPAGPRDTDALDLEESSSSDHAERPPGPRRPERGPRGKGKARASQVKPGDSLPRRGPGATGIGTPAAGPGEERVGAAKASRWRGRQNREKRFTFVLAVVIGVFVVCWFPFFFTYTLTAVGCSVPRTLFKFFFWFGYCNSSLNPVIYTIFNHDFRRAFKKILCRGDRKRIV
Test: Adrenergic α2A radioligand binding assay ([3H]MK-912)
Details: compound at 1 μM; 1 nM [3H]MK-912; insect Sf9 cells; read-out: Percent Inhibition of ligand binding, Adrenergic (1 μM) a2A
# inhibition at 1 µM annotations
MEASURED_ENDPOINT: inhibition at 1 µM (%)

Cc1ccc2c(c1)c1c(n2CCc2ccc(C)nc2)CCN(CCCO)C1 [Compound 1-42] : 35
Cc1ccc2c(c1)c1c(n2CCc2ccc(C)nc2)CCN(CCC#N)C1 [Compound 1-34] : 3
Cc1ccc2c(c1)c1c(n2CCc2ccc(CCCN)nc2)CCN(C)C1 [Compound 1-40] : 31
CN1CCc2c(c3cc(Cl)ccc3n2CC(=O)c2ccc(F)cc2)C1 [Compound 1-37] : 87
Cc1ccc2c(c1)c1c(n2CCc2ccc(C(F)(F)F)nc2)CCNC1 [Compound 1-41] : 58
CN1CCc2c(c3cc(Cl)ccc3n2CC(=O)c2ccccc2)C1 [Compound 1-36] : 43
Cc1ccc2c(c1)c1c(n2CC(=O)c2ccc(F)cc2)CCN(C)C1 [Compound 1-39] : 88
CN1CCc2c(c3cc(Cl)ccc3n2CC(=O)c2ccc(Cl)cc2)C1 [Compound 1-38] : 90
Cc1ccc2c(c1)c1c(n2CC(=O)c2ccccc2)CCN(C)C1 [Compound 1-35] : 19
CCCCC(O)(Cn1c2c(c3cc(Cl)ccc31)CN(C)CC2)c1ccc(F)cc1 (stereo not shown) [Compound 1-7] : 88

* * *

target: human recombinant adrenergic α2B receptor (Homo sapiens, UniProt P18089); construct: expressed in transfected cells; host or cells: Chinese hamster ovary (CHO-K1) cells; assay: Adrenergic α2B radioligand binding assay ([3H]Rauwolscine); conditions: compound at 0.1 μM; 2.5 nM [3H]Rauwolscine; CHO-K1 cells; read-out: Percent Inhibition of ligand binding, Adrenergic (0.1 μM) a2B
Sequence (P18089 whole entry): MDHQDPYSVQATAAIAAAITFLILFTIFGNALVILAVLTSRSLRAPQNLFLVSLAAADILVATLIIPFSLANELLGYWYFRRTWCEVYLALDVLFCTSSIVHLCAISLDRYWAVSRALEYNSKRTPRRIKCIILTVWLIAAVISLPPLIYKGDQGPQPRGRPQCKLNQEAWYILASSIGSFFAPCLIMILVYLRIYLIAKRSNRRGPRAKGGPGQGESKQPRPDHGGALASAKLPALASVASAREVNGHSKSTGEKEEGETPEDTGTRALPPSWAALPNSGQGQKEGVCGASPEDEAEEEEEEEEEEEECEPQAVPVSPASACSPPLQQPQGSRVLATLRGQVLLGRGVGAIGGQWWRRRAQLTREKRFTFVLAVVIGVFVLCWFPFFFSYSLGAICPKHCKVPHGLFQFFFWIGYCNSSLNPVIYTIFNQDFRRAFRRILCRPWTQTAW
MEASURED_ENDPOINT: inhibition at 0.1 µM (%)

CCCC[C@](O)(Cn1c2c(c3cc(Cl)ccc31)CN(C)CC2)c1ccc(F)cc1 : 2
CN1CCc2c(c3cc(Cl)c(Cl)cc3n2CC(C)(O)c2ccncc2)C1 (centres unmarked) : 64
CCCC[C@@](O)(Cn1c2c(c3cc(Cl)ccc31)CN(C)CC2)c1ccc(F)cc1 : -3
CC[C@](O)(Cn1c2c(c3cc(C)ccc31)CN(C)CC2)c1ccc(F)cc1 : 1
Cc1ccc2c(c1)c1c(n2CC(C)(O)c2ccc(O)cc2)CCN(C)C1 (centres unmarked) : 103
Cc1ccc2c(c1)c1c(n2CCc2ccc(C)nc2)CCN(CC(F)(F)F)C1 : -9
COc1ccc([C@](C)(O)Cn2c3c(c4cc(C)ccc42)CN(C)CC3)cc1 : 79
CC[C@](O)(Cn1c2c(c3cc(C)ccc31)CN(C)CC2)c1ccncc1 : 47
